Listing of recorded pIC50 by entry.
Target: recombinant hTREX1(1-242)WT (hT1) (Homo sapiens)
Construct: recombinant hTREX1(1-242)^WT
Test: fluorescence-based exonuclease assay, hTREX1 IC50 and HTS
Assay type: biochemical
Details: experiment 2; read-out: IC50 #2
pIC50: −log10 of the molar value.
assay endpoint: pIC50

- O=C(O)c1ccc(-c2ccc(/C=c3\sc4nc5cc(Br)cnc5n4c3=O)o2)cc1: 4.97
- COc1cc2c3c(ccc4c5ccc6c7c(cc(OC)c(c1c34)c75)-c1ccccc1C6=O)-c1ccccc1C2=O: 4.89
- O=C1Nc2ccc(S(=O)(=O)ON3C(=O)c4cccc5cccc(c45)C3=O)c3cccc1c23: 5.30

* * *

Molecular target: recombinant hTREX1(1-242)WT (hT1) (Homo sapiens)
Construct: recombinant hTREX1(1-242)^WT
Sequence (Q9NSU2 1-242): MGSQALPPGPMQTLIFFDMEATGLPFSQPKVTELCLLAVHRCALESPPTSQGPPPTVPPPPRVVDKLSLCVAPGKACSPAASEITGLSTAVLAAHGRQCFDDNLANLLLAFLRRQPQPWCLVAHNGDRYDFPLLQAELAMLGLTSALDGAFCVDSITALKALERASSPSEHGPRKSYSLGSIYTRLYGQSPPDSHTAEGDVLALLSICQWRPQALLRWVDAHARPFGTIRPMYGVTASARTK
Test: fluorescence-based exonuclease assay, hTREX1 IC50 and HTS
Format: biochemical
Conditions: experiment 3; read-out: IC50 #3
pIC50: −log10 of the molar value.
assay endpoint: pIC50

* Cn1c(O)c(N=NC(=O)[C@@H]2COc3cc4ccccc4cc3O2)c2cc(Br)ccc21 [TIM191] | 5.00
* O=c1c2cnc3nc(-c4ccc(Cl)cc4)nn3c2ccn1Cc1cccnc1 [TIM215] | 4.92
* CC(C)(C)c1ccc(CC2CCN(C(=O)c3cncn3-c3cccc(-c4cccc5c4sc4ccccc45)c3)CC2)cc1 [TIM181] | 5.34

* * *

# IC50 annotations
Target: recombinant hTREX1(1-242)WT (hT1) (Homo sapiens)
Construct: recombinant hTREX1(1-242)^WT
Sequence (Q9NSU2 1-242): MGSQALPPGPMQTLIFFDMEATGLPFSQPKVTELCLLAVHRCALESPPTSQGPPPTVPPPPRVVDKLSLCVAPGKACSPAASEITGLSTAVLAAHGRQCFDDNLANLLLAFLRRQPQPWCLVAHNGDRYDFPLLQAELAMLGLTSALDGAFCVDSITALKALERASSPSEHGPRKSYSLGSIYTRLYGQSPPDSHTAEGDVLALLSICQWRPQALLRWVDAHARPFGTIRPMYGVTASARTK
Assay: fluorescence-based exonuclease assay, hTREX1 IC50 and HTS
Assay type: biochemical
Settings: experiment 1; read-out: IC50 #1
Method: FIG. 1: Determining IC50 of Candidate Compounds. […] Fluorescence was measured, and fluorescence versus time plots were normalized to maximal initial fluorescence and background fluorescence. […] Active compounds had IC50 determined in at least three separate experiments. […] Several hit compounds, including those shown, had their IC50 confirmed via gel assay to validate efficacy of the fluorescence-based biochemical assay. […]
assay endpoint: IC50 (µM)

- CC(C)(C)c1ccc(CC2CCN(C(=O)c3cncn3-c3cccc(-c4cccc5c4sc4ccccc45)c3)CC2)cc1: 3.5
- O=C(c1ccc2nonc2c1)N1CCCCC1c1nc2cc(F)ccc2[nH]1 (stereo not shown): 12.7
- Cc1ccc(N2NC(=O)/C(=C/c3ccc(-c4ccc5c(c4)C(=O)NC5=O)o3)C2=O)cc1C: 13.5
- N#Cc1c(O)nc(SCC(=O)N2c3ccccc3Sc3ccccc32)nc1-c1ccccc1: 3.6
- Cc1cnc(/C=C/c2ccccc2)c2[nH]c3ccccc3c12: 16
- Cc1cc(C)c(S(=O)(=O)Nc2ccc3c(c2)c2c(n3S(=O)(=O)c3cc(C)c(C)cc3C)CCCC2=O)cc1C: 15
- Cc1ccc(-n2c(=O)c3cc4c(=O)n(-c5ccc(C)c(C)c5)c(=O)c4c(C(=O)c4ccc(C(=O)O)cc4)c3c2=O)cc1C: 6.4
- Cc1ccc2nc(N3C(=O)C(=O)C(=C(O)c4ccc5c(c4)C[C@H](C)O5)[C@@H]3c3cccs3)sc2c1: 13.1
- Cc1ccc(-c2noc(-c3cc(N4CCC(C(N)=O)CC4)nc4ccccc34)n2)cc1: 6.9
- O=c1c2cnc3nc(-c4ccc(Cl)cc4)nn3c2ccn1Cc1cccnc1: 13.9
- O=C1c2cccc([N+](=O)[O-])c2C(=O)N1c1cccc(-c2nc3ccccc3c(=O)o2)c1: 5.7
- COc1ccc(N2C(=O)c3ccc(Oc4ccc(Oc5ccc(C(=O)O)cc5)cc4)cc3C2=O)cc1: 3.7
- CCn1c2ccccc2c2cc([C@H]3Nc4ccccc4NC4=C3C(=O)C[C@@H](c3ccc(OC)cc3)C4)ccc21: 6.7
- Cc1cccc(C(=O)Nc2ccc(-c3cc4ccccc4oc3=O)cc2)c1: 24.9
- COc1ccc2[nH]c3c(c2c1)CCC[C@H]3NC(=O)COc1ccc2c3c(c(=O)oc2c1)CCCC3: 5.1
- Cn1c(O)c(N=NC(=O)[C@@H]2COc3cc4ccccc4cc3O2)c2cc(Br)ccc21: 8.5
